Data credit: patent US20140302123A1

Molecular target: T1, PTPN4-PDZ (residues G499-N604) (human), P29074
T1 chain: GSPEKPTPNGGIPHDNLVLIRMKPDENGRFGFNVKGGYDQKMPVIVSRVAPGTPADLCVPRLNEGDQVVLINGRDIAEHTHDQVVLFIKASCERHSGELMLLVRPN
Assay: NMR titration (rounded value in the text)
assay.readout: Kd (µM)
One number for each entry, in µM.

Any idea what its Kd is? The binder is SWESHKSGGETRL (modifications not checked) [Cyto13-att]
160
